test system: various cell lines of different tumor origins; test: Inhibition of cell proliferation, InCell Analyzer assay; assay type: cell-based; conditions: Homo sapiens, MDA-MB-435, MDA-MB-435, Breast (Melanoma)
measured.metric: IC50

Query :: For the compound shown here, COc1cc(N2CCC(N3CCCCC3)CC2)ccc1Nc1nccc(-c2c(-c3cccc(C(=O)Nc4c(F)cccc4F)c3)nc3ccccn23)n1 [Example 22] , give the reported IC50.
Result :: 1 to 5 µM

----------
tested on: various cell lines of different tumor origins; assay: Inhibition of cell proliferation, InCell Analyzer assay; format: cell-based; details: Homo sapiens, HOP-62, HOP-62, Lung
measured.metric: IC50

Query :: Look up IC50 for this compound: `COc1cc(N2CCC(N3CCCCC3)CC2)ccc1Nc1nccc(-c2c(-c3cccc(C(=O)Nc4c(F)cccc4F)c3)nc3ccccn23)n1`
Result :: > 5 µM

----------
Biological target: IR (NIH-3T3 cells over expressing human IGF-1R or IR) (Homo sapiens, UniProt P06213)
Construct: expressed in transfected cells; host or cells: NIH-3T3 (mouse fibroblasts)
Sequence (P06213 28-1382): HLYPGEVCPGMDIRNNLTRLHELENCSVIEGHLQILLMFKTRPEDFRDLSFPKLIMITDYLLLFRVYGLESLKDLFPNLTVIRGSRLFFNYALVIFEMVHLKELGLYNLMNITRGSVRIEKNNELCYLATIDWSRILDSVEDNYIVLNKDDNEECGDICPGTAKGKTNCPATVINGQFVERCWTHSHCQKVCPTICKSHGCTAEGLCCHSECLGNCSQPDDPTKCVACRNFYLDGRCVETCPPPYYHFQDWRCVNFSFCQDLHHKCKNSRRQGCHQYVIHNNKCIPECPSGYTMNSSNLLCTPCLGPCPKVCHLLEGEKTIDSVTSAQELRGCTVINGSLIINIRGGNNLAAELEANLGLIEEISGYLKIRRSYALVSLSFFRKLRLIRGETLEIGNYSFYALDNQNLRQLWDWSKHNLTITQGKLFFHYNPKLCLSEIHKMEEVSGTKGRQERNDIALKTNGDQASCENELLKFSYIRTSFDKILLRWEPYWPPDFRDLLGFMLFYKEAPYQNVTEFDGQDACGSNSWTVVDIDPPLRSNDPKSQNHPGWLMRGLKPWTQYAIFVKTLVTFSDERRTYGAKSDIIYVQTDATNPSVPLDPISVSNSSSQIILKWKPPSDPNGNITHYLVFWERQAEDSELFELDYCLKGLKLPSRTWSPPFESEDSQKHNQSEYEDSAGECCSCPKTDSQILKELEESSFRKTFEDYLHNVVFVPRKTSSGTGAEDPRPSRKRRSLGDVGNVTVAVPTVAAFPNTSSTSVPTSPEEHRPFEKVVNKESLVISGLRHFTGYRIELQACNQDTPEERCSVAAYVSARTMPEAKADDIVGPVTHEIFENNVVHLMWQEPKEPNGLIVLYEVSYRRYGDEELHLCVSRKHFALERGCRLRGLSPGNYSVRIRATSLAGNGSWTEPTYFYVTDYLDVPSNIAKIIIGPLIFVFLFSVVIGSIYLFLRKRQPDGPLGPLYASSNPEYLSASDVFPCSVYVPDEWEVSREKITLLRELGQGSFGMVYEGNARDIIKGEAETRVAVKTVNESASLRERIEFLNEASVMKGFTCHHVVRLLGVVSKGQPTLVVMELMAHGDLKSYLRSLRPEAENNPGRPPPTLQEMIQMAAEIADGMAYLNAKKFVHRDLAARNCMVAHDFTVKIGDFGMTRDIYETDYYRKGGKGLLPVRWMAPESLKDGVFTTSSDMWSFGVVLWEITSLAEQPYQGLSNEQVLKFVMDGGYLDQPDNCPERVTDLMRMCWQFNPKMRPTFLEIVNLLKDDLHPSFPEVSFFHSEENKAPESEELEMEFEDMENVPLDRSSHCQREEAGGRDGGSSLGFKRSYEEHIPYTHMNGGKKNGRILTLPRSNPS
Test: IR cellular autophosphorylation (DELFIA)
Format: cell-based
Settings: NIH-3T3 cells over expressing IR, insulin stimulated
Protocol: D. IGF-1R and IR Cellular Autophosphorylation (DELFIA) NIH-3T3 cells over expressing human IGF-1R or IR were plated in 96-well plates (10,000 cells/well) in culture media containing 10% fetal bovine serum and incubated at 37° C. in a 5% CO2 incubator. […] The fluorescence signal for cells treated with compounds was expressed as percent relative to 100% stimulation (IGF-1 or insulin stimulated signal). […]
measured.metric: IC50

[
  {
    "chemical.smiles": "COc1cc(N2CCN(CCS(C)(=O)=O)CC2)ccc1Nc1nccc(-c2c(-c3cccc(C(=O)Nc4c(F)cccc4F)c3)nc3ccccn23)n1",
    "assayed.target": "IR (NIH-3T3 cells over expressing human IGF-1R or IR) (Homo sapiens, UniProt P06213)",
    "measured.metric": "IC50",
    "observed.measurement": "< 100 nM"
  },
  {
    "chemical.smiles": "CCCN1CCC(c2ccc(Nc3nccc(-c4c(-c5cccc(C(=O)Nc6c(F)cccc6F)c5)nc5ccccn45)n3)c(OCC)c2)CC1",
    "assayed.target": "IR (NIH-3T3 cells over expressing human IGF-1R or IR) (Homo sapiens, UniProt P06213)",
    "measured.metric": "IC50",
    "observed.measurement": "< 100 nM"
  },
  {
    "chemical.smiles": "COc1ccn2c(-c3ccnc(Nc4cccc(OCCN(C)C)c4)n3)c(-c3cccc(C(=O)Nc4cccc(F)c4F)c3)nc2c1",
    "assayed.target": "IR (NIH-3T3 cells over expressing human IGF-1R or IR) (Homo sapiens, UniProt P06213)",
    "measured.metric": "IC50",
    "observed.measurement": "> 500 nM"
  },
  {
    "chemical.smiles": "COc1cc(N2CCC(N3C[C@@H]4C[C@H]3CN4CCF)CC2)ccc1Nc1nccc(-c2c(-c3cccc(C(=O)Nc4c(F)cccc4F)c3)nc3ccccn23)n1",
    "assayed.target": "IR (NIH-3T3 cells over expressing human IGF-1R or IR) (Homo sapiens, UniProt P06213)",
    "measured.metric": "IC50",
    "observed.measurement": "< 100 nM"
  },
  {
    "chemical.smiles": "COc1cc(N2CCC(CCS(C)(=O)=O)CC2)ccc1Nc1nccc(-c2c(-c3ccc(OC)c(C(=O)Nc4c(F)cccc4F)c3)nc3ccccn23)n1",
    "assayed.target": "IR (NIH-3T3 cells over expressing human IGF-1R or IR) (Homo sapiens, UniProt P06213)",
    "measured.metric": "IC50",
    "observed.measurement": "< 100 nM"
  }
]

Query :: Would you mind telling me what IC50 value was observed for `COc1cc(N2CCN(S(C)(=O)=O)CC2)ccc1Nc1nccc(-c2c(-c3ccc(OC)c(C(=O)Nc4c(F)cccc4F)c3)nc3ccccn23)n1` ?
Result :: < 100 nM

Query :: Another compound to check: `COc1cc(-c2nnc(CN(C)C)o2)ccc1Nc1nccc(-c2c(-c3ccc(OC)c(C(=O)Nc4c(F)cccc4F)c3)nc3ccccn23)n1`
Result :: > 500 nM

Query :: Okay, and `COc1cc(N2CCC(N3CCCCC3)CC2)c(F)cc1Nc1nccc(-c2c(-c3ccc(OC)c(C(=O)Nc4c(F)cccc4F)c3)nc3ccccn23)n1` ?
Result :: < 100 nM

Query :: Same question for `CCCN1CCN(c2ccc(Nc3nccc(-c4c(-c5ccc(OC)c(C(=O)Nc6c(F)cccc6F)c5)nc5ccccn45)n3)c(OCC)c2)CC1` please.
Result :: < 100 nM

Query :: Repeat with `COc1cc(CCCN2CCCCC2)ccc1Nc1nccc(-c2c(-c3cccc(C(=O)Nc4c(F)cccc4F)c3)nc3ccccn23)n1`
Result :: 100 to 500 nM

Query :: Also check `COc1cc(CCN2CCN(C)CC2)ccc1Nc1nccc(-c2c(-c3ccc(OC(C)C)c(C(=O)Nc4c(F)cccc4F)c3)nc3ccccn23)n1`
Result :: < 100 nM

Query :: Would you kindly repeat that for `CCOc1ccc(-c2nc3ccccn3c2-c2ccnc(Nc3ccc(N4CCC(N5CCN(CCF)CC5)CC4)cc3OC)n2)cc1C(=O)Nc1c(F)cccc1F` ?
Result :: < 100 nM

----------
system: various cell lines of different tumor origins; experiment: Inhibition of cell proliferation, InCell Analyzer assay; assay type: cell-based; details: Homo sapiens, HCC1937, HCC1937, Breast
measured.metric: IC50

Query :: Dear colleague, I am looking for the recorded IC50 of the following compound: COc1cc(N2CCC(N3CCCCC3)CC2)ccc1Nc1nccc(-c2c(-c3cccc(C(=O)Nc4c(F)cccc4F)c3)nc3ccccn23)n1 [Example 22]
Result :: > 5 µM

----------
target: human IGF-1R (NIH-3T3 cells over expressing human IGF-1R) (Homo sapiens, UniProt P08069); assay: IGF-1R cellular autophosphorylation (DELFIA); conditions: IGF-1 stimulated
Sequence (P08069 31-1367): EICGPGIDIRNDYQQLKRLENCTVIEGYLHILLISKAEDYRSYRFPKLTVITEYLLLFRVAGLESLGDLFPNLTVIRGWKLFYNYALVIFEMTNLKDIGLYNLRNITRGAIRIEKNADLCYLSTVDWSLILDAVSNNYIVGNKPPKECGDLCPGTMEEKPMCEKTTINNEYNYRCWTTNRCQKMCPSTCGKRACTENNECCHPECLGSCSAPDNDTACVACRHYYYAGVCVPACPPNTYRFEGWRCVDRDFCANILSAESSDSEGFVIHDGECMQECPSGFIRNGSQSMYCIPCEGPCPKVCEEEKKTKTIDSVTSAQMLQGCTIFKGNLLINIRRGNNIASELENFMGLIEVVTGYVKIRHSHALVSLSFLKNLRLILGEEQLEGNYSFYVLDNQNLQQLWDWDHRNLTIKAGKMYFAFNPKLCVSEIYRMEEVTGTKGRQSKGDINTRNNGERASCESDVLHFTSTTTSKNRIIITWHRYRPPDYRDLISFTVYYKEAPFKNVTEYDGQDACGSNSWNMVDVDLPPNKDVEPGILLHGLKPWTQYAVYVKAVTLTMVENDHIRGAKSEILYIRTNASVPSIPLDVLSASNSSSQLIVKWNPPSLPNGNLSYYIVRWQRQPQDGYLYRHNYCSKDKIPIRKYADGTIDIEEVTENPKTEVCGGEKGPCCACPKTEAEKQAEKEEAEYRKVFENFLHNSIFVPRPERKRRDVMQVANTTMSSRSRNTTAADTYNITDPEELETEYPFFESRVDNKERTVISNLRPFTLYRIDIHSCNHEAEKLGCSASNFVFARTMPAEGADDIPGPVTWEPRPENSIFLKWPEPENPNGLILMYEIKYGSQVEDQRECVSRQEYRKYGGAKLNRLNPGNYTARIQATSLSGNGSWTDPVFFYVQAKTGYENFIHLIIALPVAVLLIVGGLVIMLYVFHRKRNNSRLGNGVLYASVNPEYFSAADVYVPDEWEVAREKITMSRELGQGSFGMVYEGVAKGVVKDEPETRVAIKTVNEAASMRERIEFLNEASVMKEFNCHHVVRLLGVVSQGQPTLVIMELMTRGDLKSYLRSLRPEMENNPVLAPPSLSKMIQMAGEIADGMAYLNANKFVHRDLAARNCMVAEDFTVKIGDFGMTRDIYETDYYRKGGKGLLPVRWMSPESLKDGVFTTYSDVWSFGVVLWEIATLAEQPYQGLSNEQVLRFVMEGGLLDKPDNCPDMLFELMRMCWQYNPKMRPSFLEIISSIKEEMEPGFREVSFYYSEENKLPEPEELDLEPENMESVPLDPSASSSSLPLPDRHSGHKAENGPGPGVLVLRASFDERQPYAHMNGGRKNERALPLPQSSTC
pIC50: −log10 of the molar value.
Measured pIC50, listed per entry for reference.

[
  {
    "molecule": "CCCc1cc(N2CCC(N3CCCCC3)CC2)ccc1Nc1nccc(-c2c(-c3cccc(C(=O)Nc4c(F)cccc4F)c3)nc3ccccn23)n1 [Example 41]",
    "pIC50": "> 7.00"
  },
  {
    "molecule": "COc1cc(N2CCC(N3CCCCC3)CC2)c(OC)cc1Nc1nccc(-c2c(-c3cccc(C(=O)Nc4c(F)cccc4F)c3)nc3ccccn23)n1 [Example 110]",
    "pIC50": "> 7.00"
  },
  {
    "molecule": "COc1ccn2c(-c3ccnc(Nc4cccc(OCCN(C)C)c4)n3)c(-c3ccc(OC)c(C(=O)Nc4c(F)cccc4F)c3)nc2c1 [Example 3]",
    "pIC50": "6.30 to 7.00"
  },
  {
    "molecule": "COc1cc(N2CCC(N3C[C@@H]4C[C@H]3CN4CCF)CC2)ccc1Nc1nccc(-c2c(-c3cccc(C(=O)Nc4c(F)cccc4F)c3)nc3ccccn23)n1 [Example 86]",
    "pIC50": "> 7.00"
  },
  {
    "molecule": "CN(C)CCOc1cccc(Nc2nccc(-c3c(-c4cccc(C(=O)Nc5c(F)cccc5F)c4)nc4ccccn34)n2)c1 [Example 20]",
    "pIC50": "6.30 to 7.00"
  },
  {
    "molecule": "CCOc1cc(N2CCC(N3CCN(S(C)(=O)=O)CC3)CC2)c(CC)cc1Nc1nccc(-c2c(-c3ccc(OC)c(C(=O)Nc4c(F)cccc4F)c3)nc3ccccn23)n1 [Example 204]",
    "pIC50": "> 7.00"
  },
  {
    "molecule": "CCCOc1cc(N2CCC(N3CCCCC3)CC2)ccc1Nc1nccc(-c2c(-c3cccc(C(=O)Nc4c(F)cccc4F)c3)nc3ccccn23)n1 [Example 33]",
    "pIC50": "> 7.00"
  },
  {
    "molecule": "CCc1cc(Nc2nccc(-c3c(-c4ccc(OC)c(C(=O)Nc5c(F)cccc5F)c4)nc4ccccn34)n2)c(OC)cc1N1CCC(CCS(C)(=O)=O)CC1 [Example 207]",
    "pIC50": "> 7.00"
  },
  {
    "molecule": "CCOc1ccc(-c2nc3ccccn3c2-c2ccnc(Nc3ccc(CCN4CCN(C)CC4)cc3OC)n2)cc1C(=O)Nc1c(F)cccc1F [Example 133]",
    "pIC50": "> 7.00"
  },
  {
    "molecule": "COc1cc(N2CCC(N3CCCCC3)CC2)c(C)cc1Nc1nccc(-c2c(-c3ccc(OC)c(C(=O)Nc4c(F)cccc4F)c3)nc3ccccn23)n1 [Example 109]",
    "pIC50": "> 7.00"
  }
]

Let's switch to this molecule now.
Query :: Which pIC50 value is on record for COc1cc(C2CCN(CCS(C)(=O)=O)CC2)c(C)cc1Nc1nccc(-c2c(-c3ccc(OC)c(C(=O)Nc4c(F)cccc4F)c3)nc3ccccn23)n1 [Example 163] ?
Result :: > 7.00
